The measured values listed here are drawn from patent US11629146B2.

tgt: human NaV1.6 (hNaV1.6) (Homo sapiens (Human), UniProt Q9UQD0)
Sequence (Q9UQD0 whole entry): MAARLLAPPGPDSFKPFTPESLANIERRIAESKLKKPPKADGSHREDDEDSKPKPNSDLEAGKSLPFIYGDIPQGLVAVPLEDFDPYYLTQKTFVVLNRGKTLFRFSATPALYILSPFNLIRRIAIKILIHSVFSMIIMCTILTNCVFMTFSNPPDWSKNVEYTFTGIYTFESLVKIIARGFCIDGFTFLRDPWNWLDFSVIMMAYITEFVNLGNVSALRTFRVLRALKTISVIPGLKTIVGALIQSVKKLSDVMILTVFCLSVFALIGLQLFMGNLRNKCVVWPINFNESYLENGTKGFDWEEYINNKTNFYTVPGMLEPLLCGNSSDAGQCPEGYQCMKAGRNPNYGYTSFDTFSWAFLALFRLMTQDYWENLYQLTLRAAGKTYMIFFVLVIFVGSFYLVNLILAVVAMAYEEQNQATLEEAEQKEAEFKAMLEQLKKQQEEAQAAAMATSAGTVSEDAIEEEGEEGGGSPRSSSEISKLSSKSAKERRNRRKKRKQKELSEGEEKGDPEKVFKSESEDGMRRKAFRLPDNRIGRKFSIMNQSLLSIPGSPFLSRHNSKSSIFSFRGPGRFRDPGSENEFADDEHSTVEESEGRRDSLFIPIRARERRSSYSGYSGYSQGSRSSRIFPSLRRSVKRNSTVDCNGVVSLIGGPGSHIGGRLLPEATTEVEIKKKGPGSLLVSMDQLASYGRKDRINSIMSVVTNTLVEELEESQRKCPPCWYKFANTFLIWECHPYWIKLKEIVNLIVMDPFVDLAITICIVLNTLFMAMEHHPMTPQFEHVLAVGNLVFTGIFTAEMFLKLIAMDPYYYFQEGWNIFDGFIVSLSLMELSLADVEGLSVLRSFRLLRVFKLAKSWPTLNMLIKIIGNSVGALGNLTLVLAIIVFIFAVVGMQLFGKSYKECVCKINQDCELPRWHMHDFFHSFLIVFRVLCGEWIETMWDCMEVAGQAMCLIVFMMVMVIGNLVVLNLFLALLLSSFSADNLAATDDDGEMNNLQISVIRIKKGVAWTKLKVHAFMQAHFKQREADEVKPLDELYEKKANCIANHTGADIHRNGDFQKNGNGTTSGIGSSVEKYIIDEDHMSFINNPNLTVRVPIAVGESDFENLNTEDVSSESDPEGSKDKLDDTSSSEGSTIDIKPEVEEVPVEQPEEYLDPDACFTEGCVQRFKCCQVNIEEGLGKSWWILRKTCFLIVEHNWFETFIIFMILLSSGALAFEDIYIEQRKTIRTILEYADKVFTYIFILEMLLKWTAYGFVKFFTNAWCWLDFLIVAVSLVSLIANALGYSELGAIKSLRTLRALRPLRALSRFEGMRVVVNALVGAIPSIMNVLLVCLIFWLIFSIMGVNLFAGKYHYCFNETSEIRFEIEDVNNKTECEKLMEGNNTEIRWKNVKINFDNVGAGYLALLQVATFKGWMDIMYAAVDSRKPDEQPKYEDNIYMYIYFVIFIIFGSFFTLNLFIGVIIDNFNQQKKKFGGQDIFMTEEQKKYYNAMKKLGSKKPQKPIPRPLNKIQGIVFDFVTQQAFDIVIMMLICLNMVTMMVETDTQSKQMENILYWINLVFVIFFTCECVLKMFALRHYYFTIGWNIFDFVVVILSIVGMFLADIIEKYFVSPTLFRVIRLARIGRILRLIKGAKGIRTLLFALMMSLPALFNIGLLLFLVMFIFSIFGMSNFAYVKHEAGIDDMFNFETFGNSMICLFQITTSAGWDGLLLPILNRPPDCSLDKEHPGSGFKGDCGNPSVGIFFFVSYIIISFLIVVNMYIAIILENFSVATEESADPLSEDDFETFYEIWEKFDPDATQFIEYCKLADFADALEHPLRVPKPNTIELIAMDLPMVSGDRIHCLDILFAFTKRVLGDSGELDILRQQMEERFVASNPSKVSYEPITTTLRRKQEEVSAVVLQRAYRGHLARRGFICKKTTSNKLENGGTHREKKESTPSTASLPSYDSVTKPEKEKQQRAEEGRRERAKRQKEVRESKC
protocol: INaL inhibition at hNaV1.6, PatchXpress electrophysiology
Assay type: cell-based
experimental.conditions: HEK293; 1 μM; HEK-293 cells expressing hNaV1.6; late current evoked by 300 nM ATX-II; read-out: INaL v1.6 (1 μM, % Inhibition)
Attribute: inhibition at 1 µM
measured.quantity: inhibition at 1 µM

>>> result("FC(F)(F)Oc1ccc(-c2ccc3nnc(CC4CCCO4)n3n2)cc1 (stereo not drawn)")
"< 30%"
>>> result("COC(F)(F)c1nnc2ccc(-c3ccc(C(F)(F)F)cc3C)nn12")
"> 70%"
>>> result("COc1cc(OC(F)(F)F)ccc1-c1cn2c(C(F)F)nnc2cn1")
"< 30%"
>>> result("Fc1cc(-c2ccc3nnc(C(F)(F)F)n3n2)cnc1C(F)(F)F")
"< 30%"
>>> result("COCc1cc(C(F)(F)F)ccc1-c1cn2c(C(F)F)nnc2cn1")
"30 to 70%"
>>> result("FC(F)OCc1cc(OC(F)(F)F)ccc1-c1ccc2nnc(C(F)(F)F)n2n1")
"30 to 70%"
>>> result("FC1(F)CC(c2nnc3ccc(-c4ccc(OC(F)(F)F)cc4)nn23)C1")
"> 70%"
>>> result("C[C@H](Oc1ncc(-c2cn3c(C(F)(F)F)nnc3cn2)cc1F)C(F)(F)F (single isomer, unassigned)")
"> 70%"
>>> result("FC(F)(F)Oc1ccc(Cl)c(-c2ccc3nnc(C(F)(F)F)n3n2)c1")
"< 30%"
